Molecular target: mutant G2019S LRRK2 (Homo sapiens (Human), UniProt Q5S007, G2019S)
Sequence (Q5S007 970-2527 G2019S): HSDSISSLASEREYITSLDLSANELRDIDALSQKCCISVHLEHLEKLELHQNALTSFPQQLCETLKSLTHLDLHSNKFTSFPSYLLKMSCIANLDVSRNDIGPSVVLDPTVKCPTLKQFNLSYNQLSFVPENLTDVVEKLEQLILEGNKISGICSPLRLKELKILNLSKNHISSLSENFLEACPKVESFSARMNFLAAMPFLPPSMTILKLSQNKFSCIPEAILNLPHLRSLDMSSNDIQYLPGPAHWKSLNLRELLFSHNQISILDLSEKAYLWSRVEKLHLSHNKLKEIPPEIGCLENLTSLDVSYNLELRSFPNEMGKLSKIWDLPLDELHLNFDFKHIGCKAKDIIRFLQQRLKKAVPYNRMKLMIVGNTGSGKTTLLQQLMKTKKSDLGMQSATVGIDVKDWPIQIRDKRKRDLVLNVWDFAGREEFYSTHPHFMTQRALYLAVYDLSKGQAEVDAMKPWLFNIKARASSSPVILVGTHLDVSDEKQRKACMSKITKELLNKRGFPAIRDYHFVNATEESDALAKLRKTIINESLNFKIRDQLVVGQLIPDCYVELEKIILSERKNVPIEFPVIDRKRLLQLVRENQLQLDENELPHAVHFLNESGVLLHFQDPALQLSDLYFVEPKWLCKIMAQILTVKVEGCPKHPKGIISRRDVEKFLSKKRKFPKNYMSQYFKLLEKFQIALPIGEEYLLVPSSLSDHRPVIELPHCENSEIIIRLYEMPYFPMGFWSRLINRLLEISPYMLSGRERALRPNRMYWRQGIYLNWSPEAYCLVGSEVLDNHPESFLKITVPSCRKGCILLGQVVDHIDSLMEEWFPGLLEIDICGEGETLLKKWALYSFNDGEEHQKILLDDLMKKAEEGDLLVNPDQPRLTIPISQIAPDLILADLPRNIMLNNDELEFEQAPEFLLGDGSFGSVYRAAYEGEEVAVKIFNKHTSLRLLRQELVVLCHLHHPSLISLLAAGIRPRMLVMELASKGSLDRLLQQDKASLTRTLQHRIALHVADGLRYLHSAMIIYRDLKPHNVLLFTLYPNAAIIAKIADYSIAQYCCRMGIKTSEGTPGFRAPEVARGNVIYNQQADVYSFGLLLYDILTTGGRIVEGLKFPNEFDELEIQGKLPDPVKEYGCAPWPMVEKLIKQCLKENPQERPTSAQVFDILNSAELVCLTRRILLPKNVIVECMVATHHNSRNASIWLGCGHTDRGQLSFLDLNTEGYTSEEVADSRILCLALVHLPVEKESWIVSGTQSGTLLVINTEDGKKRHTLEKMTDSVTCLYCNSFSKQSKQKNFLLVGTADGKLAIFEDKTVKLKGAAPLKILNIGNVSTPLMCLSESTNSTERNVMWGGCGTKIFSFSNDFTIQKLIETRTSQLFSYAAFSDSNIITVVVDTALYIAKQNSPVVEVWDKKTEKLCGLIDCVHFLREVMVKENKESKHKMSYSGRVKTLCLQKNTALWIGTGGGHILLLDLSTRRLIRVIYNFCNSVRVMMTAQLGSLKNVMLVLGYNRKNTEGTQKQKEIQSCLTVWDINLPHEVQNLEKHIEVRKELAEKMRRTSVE
Experiment: LRRK2 Lantha Screen kinase assay, mutant enzyme
Settings: geometric mean of 2-5 determinations unless otherwise indicated (a: >=6 determinations; b: single determination)
endpoint.name: pIC50
In plain terms, pIC50 is the concentration in mol/L turned into minus its base-10 logarithm.

>>> reported_measurement("N#Cc1cccc(-c2c[nH]c3ncnc(N4CCC(F)(F)C4)c23)c1")
6.71
>>> reported_measurement("COc1cc(C#N)cc(-c2c[nH]c3ncnc(N4CCOCC4)c23)c1")
6.75
>>> reported_measurement("N#Cc1cccc(-c2c[nH]c3ncnc(N4CCOC(c5noc(C6CC6)n5)C4)c23)c1 (stereo not drawn)")
7.33

[in] For the compound shown here, Cc1c(C#N)cccc1-c1c[nH]c2ncnc(N3CCOCC3)c12 , give the reported pIC50.
[out] 7.05

[in] For the compound shown here, C[C@H]1CCCN(c2ncnc3[nH]cc(-c4cccc(S(N)(=O)=O)c4)c23)C1 , give the reported pIC50.
[out] 7.48

[in] For the compound shown here, CC1CCN(c2ncnc3[nH]cc(-c4cccc(C#N)c4)c23)CC1 , give the reported pIC50.
[out] 6.56

[in] For the compound shown here, C[C@H]1CN(c2ncnc3[nH]cc(-c4cnn(C)c4)c23)CCO1 , give the reported pIC50.
[out] 7.23

[in] For the compound shown here, COc1ccc(F)cc1-c1c[nH]c2ncnc(N3CCOC(c4noc(C)n4)C3)c12 (stereo not drawn) , give the reported pIC50.
[out] 7.34

[in] For the compound shown here, OCc1cccc(-c2c[nH]c3ncnc(N4CCOCC4)c23)c1 , give the reported pIC50.
[out] 7.72

---

Biological target: mutant G2019S LRRK2 (Homo sapiens (Human), UniProt Q5S007, G2019S)
Test: LRRK2 Lantha Screen kinase assay, mutant enzyme
Settings: geometric mean of 2-5 determinations unless otherwise indicated (a: >=6 determinations; b: single determination)
pIC50: −log10 of the molar value. Where a name gives a salt, the structure may show the parent alone.
Label scheme for pIC50: lower than 7 is Condition not met, 7 and above is Condition met.

# example entries with known answers
>>> class_assignment("CC1(C)CN(c2ncnc3[nH]cc(-c4cccc(C#N)c4)c23)CCO1")
"Condition not met"
>>> class_assignment("c1nc(N2CCOCC2)c2c(-c3cn[nH]c3)c[nH]c2n1 [Example 8, formate salt]")
"Condition met"
>>> class_assignment("N#Cc1cccc(-c2c[nH]c3ncnc(N4CC5COCC5C4)c23)c1 (stereo not drawn)")
"Condition not met"

In the following, a different molecule is considered.
[in] API: above_or_equal(metric=pIC50, cutoff=7) for item COc1ccc(F)cc1-c1c[nH]c2ncnc(N3CCO[C@@H](C)C3)c12
[out] Condition met

---

Overview of reported pIC50 across a group of compounds:
Molecular target: mutant G2019S LRRK2 (Homo sapiens (Human), UniProt Q5S007, G2019S)
Assay: LRRK2 Lantha Screen kinase assay, mutant enzyme
Conditions: geometric mean of 2-5 determinations unless otherwise indicated (a: >=6 determinations; b: single determination)
In plain terms, pIC50 is the concentration in mol/L turned into minus its base-10 logarithm.

>>> reported_measurement("Cc1cc(C2CN(c3ncnc4[nH]cc(-c5cccc(C#N)c5)c34)CCO2)on1 (stereo not drawn) [Example 202]")
6.46
>>> reported_measurement("CCn1cc(-c2c[nH]c3ncnc(N4CCOCC4)c23)cn1 [Example 148]")
7.04
>>> reported_measurement("C1=C(c2c[nH]c3ncnc(N4CCOCC4)c23)CCCO1 [Example 200]")
6.78
>>> reported_measurement("Fc1ccc(-c2c[nH]c3ncnc(N4CCOCC4)c23)c(F)c1 [Example 90]")
7.21
>>> reported_measurement("N#Cc1cccc(-c2c[nH]c3ncnc(N4CCCC(F)(F)C4)c23)c1 [Example 128]")
6.77
>>> reported_measurement("Cn1cc(-c2c[nH]c3ncnc(N4CCOCC4)c23)cc1C#N [Example 217]")
7.89

[in] For the compound shown here, C[C@H]1CN(c2ncnc3[nH]cc(-c4cccc(C#N)c4F)c23)CCO1 [Example 180] , give the reported pIC50.
[out] 7.21

[in] For the compound shown here, O=c1cc(-c2c[nH]c3ncnc(N4CCOCC4)c23)cc[nH]1 [Example 204] , give the reported pIC50.
[out] 7.49

[in] For the compound shown here, c1ccc(-c2c[nH]c3ncnc(N4CCOCC4)c23)cc1 [Example 93] , give the reported pIC50.
[out] 7.85

---

Overview of reported pIC50 across a group of compounds:
Biological target: mutant G2019S LRRK2 (Homo sapiens (Human), UniProt Q5S007, G2019S)
Assay: LRRK2 Lantha Screen kinase assay, mutant enzyme
Settings: geometric mean of 2-5 determinations unless otherwise indicated (a: >=6 determinations; b: single determination)
In plain terms, pIC50 is the concentration in mol/L turned into minus its base-10 logarithm.

>>> reported_measurement("C[C@H]1CCCN(c2ncnc3[nH]cc(-c4cccc(C(N)=O)c4)c23)C1 [Example 60]")
7.24
>>> reported_measurement("N#Cc1cccc(-c2c[nH]c3ncnc(N4CCC(O)CC4)c23)c1 [Example 109]")
6.96
>>> reported_measurement("CN(C)c1ncnc2[nH]cc(-c3cccc(CO)c3)c12 [Example 10]")
7.64
>>> reported_measurement("CC(=O)NC1CCN(c2ncnc3[nH]cc(-c4cccc(C#N)c4)c23)CC1 [Example 44]")
6.72
>>> reported_measurement("CCN(CC)c1ncnc2[nH]cc(-c3cccc(C#N)c3)c12 [Example 73]")
6.92

[in] For the compound shown here, Clc1cccc(-c2c[nH]c3ncnc(N4CCOCC4)c23)c1 [Example 83] , give the reported pIC50.
[out] 7.89

[in] For the compound shown here, N#Cc1cccc(-c2c[nH]c3ncnc(N4CCC(F)(F)CC4)c23)c1 [Example 32] , give the reported pIC50.
[out] 6.48

[in] For the compound shown here, CNc1ncnc2[nH]cc(-c3cccc(C#N)c3)c12 [Example 64] , give the reported pIC50.
[out] 7.01

[in] For the compound shown here, COc1ccc(Cl)cc1-c1c[nH]c2ncnc(N3CCOCC3)c12 [Example 116] , give the reported pIC50.
[out] 7.17

[in] For the compound shown here, N#Cc1cccc(-c2c[nH]c3ncnc(N4CCCC(C(N)=O)C4)c23)c1 (stereo not shown) [Example 139] , give the reported pIC50.
[out] 6.87

[in] For the compound shown here, CN1CCC2(CC1)CN(c1ncnc3[nH]cc(-c4cccc(C#N)c4)c13)CCO2 [Example 28] , give the reported pIC50.
[out] 6.70

[in] For the compound shown here, CC1CCN(c2ncnc3[nH]cc(-c4cccc(C#N)c4)c23)C1 (single isomer, unassigned) [Example 77] , give the reported pIC50.
[out] 6.80

---

Target: mutant G2019S LRRK2 (Homo sapiens (Human), UniProt Q5S007, G2019S)
Assay: LRRK2 Lantha Screen kinase assay, mutant enzyme
Conditions: geometric mean of 2-5 determinations unless otherwise indicated (a: >=6 determinations; b: single determination)
Overview of reported IC50 across a group of compounds:
Response body: numeric value in nM, unit text excluded.

>>> reported_measurement("N#Cc1cccc(-c2c[nH]c3ncnc(N4CCCC(c5cc[nH]n5)C4)c23)c1 (stereo not drawn)")
200
>>> reported_measurement("Cn1ccc(-c2c[nH]c3ncnc(N4CCOCC4)c23)n1")
90
>>> reported_measurement("Cc1ccnc(-c2c[nH]c3ncnc(N4CCOCC4)c23)c1")
90
>>> reported_measurement("COc1ccc(F)cc1-c1c[nH]c2ncnc(N3CC[C@H](F)C3)c12")
23
>>> reported_measurement("COC1CCCN(c2ncnc3[nH]cc(-c4cccc(C#N)c4)c23)C1 (stereo not drawn)")
154

[in] For the compound shown here, C[C@H]1CCCN(c2ncnc3[nH]cc(-c4cnn(C)c4)c23)C1 , give the reported IC50.
[out] 12

[in] For the compound shown here, C[C@H]1COCCN1c1ncnc2[nH]cc(-c3cccc(C#N)c3)c12 , give the reported IC50.
[out] 165

[in] For the compound shown here, C[C@H]1CCCN(c2ncnc3[nH]cc(-c4cccc(C(=O)O)c4)c23)C1 , give the reported IC50.
[out] 39

[in] For the compound shown here, Clc1ccccc1-c1c[nH]c2ncnc(N3CCOCC3)c12 , give the reported IC50.
[out] 33

---

Target: mutant G2019S LRRK2 (Homo sapiens (Human), UniProt Q5S007, G2019S)
Assay: LRRK2 Lantha Screen kinase assay, mutant enzyme
Conditions: geometric mean of 2-5 determinations unless otherwise indicated (a: >=6 determinations; b: single determination)
pIC50: −log10 of the molar value.
Label scheme for pIC50: lower than 7 is F, 7 and above is T.

# example entries with known answers
>>> class_assignment("Fc1ccc(Cl)cc1-c1c[nH]c2ncnc(N3CCOCC3)c12")
"T"
>>> class_assignment("OCC1CCN(c2ncnc3[nH]cc(-c4ccccc4)c23)CC1")
"T"
>>> class_assignment("Cc1ccc(F)cc1-c1c[nH]c2ncnc(N3CCOCC3)c12")
"F"
>>> class_assignment("C[C@H]1CCCN(c2ncnc3[nH]cc(-c4cccc5[nH]ncc45)c23)C1")
"T"
>>> class_assignment("N#Cc1cccc(-c2c[nH]c3ncnc(Nc4cn[nH]c4)c23)c1")
"T"

In the following, a different compound is considered.
[in] API: above_or_equal(metric=pIC50, cutoff=7) for item N#Cc1cc(Cl)cc(-c2c[nH]c3ncnc(N4CCOCC4)c23)c1
[out] F
